Test system: SK-OV-3
Test: NCI tumour cell line growth inhibition, 48 h
Active and inactive are the calls of the source. No stated cut-off is given here; in the data, active = GI50 up to about 1.1 µM and inactive = higher.
I would appreciate it if you answered using one of these outcomes: YES for active, NO for inactive

Task: So what was the verdict on `Nc1nc(N)c(C2=CCN(Cc3ccccc3)CC2)c(=O)[nH]1` in this test?
Output: NO

Task: So what was the verdict on `CCCCCC(=O)N[C@H]1CCc2cc(O)c(O)c(O)c2-c2ccc(SC)c(=O)cc21` in this test?
Output: NO

Task: So what was the verdict on CC(C)(C)OC(=O)NCC(=O)NC1c2ccsc2/C(=N/O)[C@H]1O (stereo not given in full) in this test?
Output: NO

Task: So what was the verdict on c1ccc2c(c1)nc1n2C2CCC(C2)N1 (stereo not given) in this test?
Output: NO

Task: So what was the verdict on `O=C1/C(=C\c2ccc([N+](=O)[O-])cc2)N(S(=O)(=O)c2ccccc2)c2ncccc21` in this test?
Output: YES

* * *

Tested on: U-251
Test: NCI tumour cell line growth inhibition, 48 h
Active and inactive are the calls of the source. Cut-off read from the data, not from the text of the source: active = GI50 up to about 1.1 µM and inactive = higher.
measured parameter: GI50

Task: Using the record for `COC(=O)c1c(O)ccc2c1c1c(n2Cc2ccc(OC)cc2)C(=O)c2ccccc2C1` , state its measured GI50.
Output: 47.3 µM (inactive)

Task: Using the record for COc1cc2c(c(OC3OC(CO)C(O)C(O)C3O)c1)C(=O)CC(c1ccc(O)cc1)O2 (stereo unspecified) , state its measured GI50.
Output: > 100 µM (inactive)

Task: Using the record for `C#C[C@]1(O)CCCC2=CC(=O)CC[C@@]21C` , state its measured GI50.
Output: > 100 µM (inactive)

Task: Using the record for c1ccc2c(c1)CCN1CCc3ccccc3C1C2 (stereo unspecified) , state its measured GI50.
Output: 38.4 µM (inactive)

Task: Using the record for `CN1CCN(CCn2c3c4ccccc4ccc3c3oc(=O)c4ccccc4c32)CC1` , state its measured GI50.
Output: 2.49 µM (inactive)

Task: Using the record for `CSc1nc2nccnc2c(=O)[nH]1` , state its measured GI50.
Output: > 100 µM (inactive)

* * *

Tested on: DU-145
Test: NCI tumour cell line growth inhibition, 48 h
Activity calls are given as the source filed them. Cut-off read from the data, not from the text of the source: active = GI50 up to about 1.1 µM and inactive = higher.
I would appreciate it if you answered using one of these outcomes: active, inactive

Task: So what was the verdict on `O=C(N/C(=C/c1ccc(Cl)cc1Cl)c1nc2ccccc2s1)c1ccccc1` in this test?
Output: inactive

Task: So what was the verdict on `O=C(O)Cn1nnc2c(=O)[nH][nH]c(=O)c21` in this test?
Output: inactive

Task: So what was the verdict on CCC1C(c2cc(OC)c(OC)c(OC)c2)c2cc3c(cc2OC1N1CCOCC1)OCO3 (stereo not drawn) in this test?
Output: inactive

Task: So what was the verdict on CS(=O)(=O)C(C#N)c1nc2ccccc2nc1Cl (stereo not drawn) in this test?
Output: inactive

Task: So what was the verdict on `NC(=O)CC[C@H]1C(=O)N=C(N)N1C(=O)OCc1ccccc1` in this test?
Output: inactive

Task: So what was the verdict on `O=C1c2ccccc2C(=O)c2c1nc1ccccc1c2-c1cncc(-c2c3c(nc4ccccc24)C(=O)c2ccccc2C3=O)c1` in this test?
Output: inactive

Task: So what was the verdict on `CCCCn1c2c(n(CCCC)c1=S)-c1c(n(CCCC)c(=S)n1CCCC)SSc1c(n(CCCC)c(=S)n1CCCC)-c1c(n(CCCC)c(=S)n1CCCC)SSc1c(n(CCCC)c(=S)n1CCCC)-c1c(n(CCCC)c(=S)n1CCCC)SS2` in this test?
Output: inactive

Task: So what was the verdict on CC[C@]12C=CCN3CCC4(c5cc([C@@]6(C(=O)OC)CC7CN(CCc8c6[nH]c6ccccc86)C[C@@H]6CCCC[C@H]76)c(OC)cc5N(C)C4[C@](O)(C(=O)OC)C1OC(C)=O)[C@@H]32 (stereo partly drawn) in this test?
Output: active

Task: So what was the verdict on `CCN(C(=S)N[C@@H](Cc1ccccc1)C(=O)N[C@@H](CC(C)C)C(=O)OC)c1ccccc1` in this test?
Output: inactive

Task: So what was the verdict on C[C@@H]1CC[C@]2(C(=O)O)CC[C@]3(C)C(=CC[C@@H]4[C@@]5(C)CC[C@H](O)C(C)(C)[C@@H]5CC[C@]43C)[C@@H]2[C@]1(C)O [POMOLIC ACID] in this test?
Output: inactive

Task: So what was the verdict on `Cc1ccnc2nc(-c3cccc(Cl)c3)cc(O)c12` in this test?
Output: active

Task: So what was the verdict on `N#Cc1ccc2oc3ccc(C#N)cc3c(=O)c2c1` in this test?
Output: inactive

Task: So what was the verdict on CCCCCCCCCCCCCCCCCC(=O)Nc1ccn(C2CCC(COP(=O)(O)O)O2)c(=O)n1 (stereo not drawn) in this test?
Output: inactive

Task: So what was the verdict on `CCSc1nnc(Sc2c3ccccc3nc3ccccc23)s1` in this test?
Output: inactive

Task: So what was the verdict on `COc1cc(CSc2ccc(O)cc2)cc(OC)c1OC` in this test?
Output: inactive

Task: So what was the verdict on Cc1cc(O)nc(NN2C(Cl)C(=O)C2c2ccc(O)cc2)n1 (stereo not drawn) in this test?
Output: inactive

Task: So what was the verdict on `CCN(CC)CCNc1ccc2ncn3c4c(OC)cccc4c(=O)c1c23` in this test?
Output: inactive

Task: So what was the verdict on `COc1ccccc1N/C(=C\C(=O)C(=O)NC12CC3CC(CC(C3)C1)C2)c1ccccc1` in this test?
Output: inactive

* * *

System: SK-MEL-5
Experiment: NCI tumour cell line growth inhibition, 48 h
Activity calls are given as the source filed them. Cut-off read from the data, not from the text of the source: active = GI50 up to about 1.1 µM and inactive = higher.
I would appreciate it if you answered using one of these outcomes: y for active, n for inactive

Task: So what was the verdict on `CC(=O)N1C(=O)C(=O)c2cc(Cl)ccc21` in this test?
Output: n

Task: So what was the verdict on `CC(=O)n1c(=O)c2cc3c(=O)n(-c4cccc(C#N)c4)c(=O)c3cc2c1=O` in this test?
Output: n

Task: So what was the verdict on `CSCC(COC(C)=O)(CSC)c1ccncc1` in this test?
Output: n

Task: So what was the verdict on `c1cc(-c2cnc(-c3ccc4c(c3)CCCO4)o2)ccn1` in this test?
Output: n

Task: So what was the verdict on OCC1CCCC(n2cnc3c(S)ncnc32)O1 (configuration not stated) in this test?
Output: n

Task: So what was the verdict on COc1c2c(cc3c1C(=O)c1c(O)cccc1C3=O)CC(O)CC2 (configuration not stated) in this test?
Output: n

Task: So what was the verdict on `S=C(S)NCNC(=S)S` in this test?
Output: n

Task: So what was the verdict on NNC(=O)C(=O)N/N=C1/CCCC1C(=O)CCC(=O)Nc1ccc(Cl)cc1 (configuration not stated) in this test?
Output: n

Task: So what was the verdict on `COc1cc(C#CC(=O)OC/C=C/c2ccc3c(c2)OCO3)cc(OC)c1OC` in this test?
Output: n

Task: So what was the verdict on Cc1cc2c(cc1C)C(=O)C1(C2)Cc2c(ccc(C)c2C)C1=O (configuration not stated) in this test?
Output: n

Task: So what was the verdict on c1ccc2c(c1)CCN1CCc3ccccc3C1C2 (configuration not stated) in this test?
Output: n

Task: So what was the verdict on NC1CC(=O)c2cc(Cl)sc21 (configuration not stated) in this test?
Output: n

Task: So what was the verdict on CC1(C)C2CC(=O)C1(C)C(OCc1ccccc1)C2 (configuration not stated) in this test?
Output: n

Task: So what was the verdict on `C[C@@H](CO)OCOCc1ccccc1` in this test?
Output: n

Task: So what was the verdict on `CO[C@@H]1C[C@H]2N3CC[C@@]2(c2cc4c(cc2C3)OCO4)[C@H]2O[C@@H]12` in this test?
Output: y

Task: So what was the verdict on `CC1=C(C2=C(C)C(=O)C(=O)c3cc(C)ccc32)c2ccc(C)cc2C(=O)C1=O` in this test?
Output: y

Task: So what was the verdict on `CNC(=O)CCNC(=O)CCC(=O)OC` in this test?
Output: n

Task: So what was the verdict on `C#C[C@]1(O)CCCC2=CC(=O)CC[C@@]21C` in this test?
Output: n

Task: So what was the verdict on `O=C1/C(=C\c2ccc([N+](=O)[O-])cc2)N(S(=O)(=O)c2ccccc2)c2ncccc21` in this test?
Output: n

Task: So what was the verdict on `CSc1nc(N)c2c(-c3ccccc3)c3c(nc2n1)CCCC3` in this test?
Output: n

Task: So what was the verdict on `O=C(Nc1ccc2nc(-c3ccccc3)cn2c1)Oc1ccccc1` in this test?
Output: n

Task: So what was the verdict on CCOC(=O)C1=C(C)N(Cc2ccccc2)C2(O)C=CC(O)=C3C(=O)c4ccccc4C(=O)C312 (configuration not stated) in this test?
Output: n

Task: So what was the verdict on O=C(NCC(O)COc1ccccc1)c1ccccc1O (configuration not stated) in this test?
Output: n

Task: So what was the verdict on `CN(C)c1nc(N(C)C)nc(N(C)CN(C)c2ccccc2)n1` in this test?
Output: n

Task: So what was the verdict on `Cc1cc(S(=O)(=O)N=C2NCC(C)(C)CN2)c(S)cc1Cl` in this test?
Output: n

Task: So what was the verdict on `NCCc1ccc(S(=O)(=O)O)cc1[N+](=O)[O-]` in this test?
Output: n

Task: So what was the verdict on CCC(CO)COC(=O)/C=C/C(=O)OCC(CC)CO (configuration not stated) in this test?
Output: n

Task: So what was the verdict on `CCC(=N\NC(N)=S)/C(C)=N/O` in this test?
Output: n

Task: So what was the verdict on `CCCCc1c2c(nc3c1CCC/C3=C\c1ccccc1)C(=O)CCC2` in this test?
Output: n

Task: So what was the verdict on `COC(=O)c1ccc(/C=C2\Oc3ccccc3C2=O)cc1` in this test?
Output: n

Task: So what was the verdict on `OCCNCO` in this test?
Output: n

Task: So what was the verdict on `Cc1nc(N)nc(S)c1CCCNc1ccccc1` in this test?
Output: n

Task: So what was the verdict on `c1ccc(CCN2CCOCC2)nc1` in this test?
Output: n

Task: So what was the verdict on `CC(=C/c1ccccc1)/C=C1/NC(=S)N(/C=C2\C(=O)Oc3ccccc3C2=O)C1=O` in this test?
Output: n

Task: So what was the verdict on O=C(CN1CCN(c2ccccc2)CC1)N1CCc2c([nH]c3ccccc23)C1c1cccnc1 (configuration not stated) in this test?
Output: n

Task: So what was the verdict on `c1ccc([P+](Cc2ccc(C[P+](c3ccccc3)(c3ccccc3)c3ccccc3)cc2)(c2ccccc2)c2ccccc2)cc1` in this test?
Output: n

Task: So what was the verdict on `COc1cc([N+](=O)[O-])ccc1NC(=O)c1cccc([N+](=O)[O-])c1O` in this test?
Output: n

Task: So what was the verdict on c1ccc(C2SCC3=Nc4ccccc4CN32)cc1 (configuration not stated) in this test?
Output: n

Task: So what was the verdict on `COc1cccc2c1C(=O)c1ccc3cc(CO)cc(O)c3c1C2=O` in this test?
Output: y

Task: So what was the verdict on `CCOC(=O)C(C)(C)Oc1ccc2c(-c3ccccc3)cc(=O)oc2c1` in this test?
Output: n

Task: So what was the verdict on `O=C(CSCC(=O)N/N=C/c1cccc(OCc2ccccc2)c1)N/N=C/c1cccc(OCc2ccccc2)c1` in this test?
Output: n

Task: So what was the verdict on `Cc1c(C(=O)C/C(=N/NC(=O)C[n+]2ccccc2)C(=O)Nc2ccccc2)[n+]([O-])c2ccccc2[n+]1[O-]` in this test?
Output: n

Task: So what was the verdict on `O=C(NNc1cn[nH]c(=O)c1Cl)/C(=C/c1ccc2c(c1)OCO2)NC(=O)c1ccccc1` in this test?
Output: n

Task: So what was the verdict on `COc1cc(-c2nn3c(=O)n(-c4ccc(Cl)cc4)c(=O)nc3s2)cc(OC)c1OC` in this test?
Output: n

Task: So what was the verdict on `CC(C)(/N=N/C(C)(C)C(=N)N)C(=N)N` in this test?
Output: n

Task: So what was the verdict on `NC(=O)Oc1ccccc1` in this test?
Output: n

Task: So what was the verdict on `Nc1c(C(=O)O)nnc2cc(Cl)ccc12` in this test?
Output: n
